mortality at 50 ppm values for the compounds below.
- Tested on: Nilaparvata lugens (Brown Plant Hopper)
- assay: Nilaparvata lugens (Brown Plant Hopper): Larvicide, Feeding/Contact
- Type: in vivo
- test_conditions: 168 h, application rate of 50 ppm, N3 nymphs on sprayed rice plants, 7 days after the treatment
- Description: Example B10: Nilaparvata lugens (Brown Plant Hopper): Larvicide, Feeding/Contact Rice plants were treated with the diluted test solutions in a spray chamber. After drying plants were infested with ˜20 N3 nymphs. 7 days after the treatment samples were assessed for mortality and growth regulation.

Examples with their reported mortality at 50 ppm follow.
- compound: "CCS(=O)(=O)c1cc(C2(C#N)CC2)cnc1N1Cc2ncc(C(F)(F)F)cc2C1=O"
  val: "≥ 80%"
- compound: "CCS(=O)(=O)c1cc(C(C)(C)C#N)cnc1N1Cc2cnc(C(F)(F)F)cc2C1=O [Compound P2]"
  val: "≥ 80%"
- compound: "CCS(=O)(=O)c1ccc(N(C)C(=O)NC)nc1N1Cc2cnc(C(F)(F)F)cc2C1=O"
  val: "≥ 80%"

Prompt: Provide value of mortality at 50 ppm for this record tested with Nilaparvata lugens (Brown Plant Hopper): `CCS(=O)(=O)c1cc(N(C)C(C)=O)cnc1N1Cc2cnc(C(F)(F)F)cc2C1=O`
Response: ≥ 80%

Prompt: Can you look up mortality at 50 ppm on Nilaparvata lugens (Brown Plant Hopper) for `CCS(=O)(=O)c1ccc(N(C)C(=O)C2CC2)nc1N1Cc2cnc(C(F)(F)F)cc2C1=O` ?
Response: ≥ 80%

Prompt: Item: `CCS(=O)(=O)c1cc(C(F)(F)F)cnc1N1Cc2cnc(C(F)(F)F)cc2C1=O` Test system: Nilaparvata lugens (Brown Plant Hopper) Read-out: mortality at 50 ppm Value: ?
Response: ≥ 80%

Prompt: Short answer please: mortality at 50 ppm, Nilaparvata lugens (Brown Plant Hopper), entry `CCS(=O)(=O)c1cc(C2(C#N)CC2)cnc1N1Cc2cnc(C(F)(F)F)cc2C1=O`
Response: ≥ 80%

Prompt: Checklist item: mortality at 50 ppm tested on Nilaparvata lugens (Brown Plant Hopper), entry `CCS(=O)(=O)c1ccc(NC)nc1N1Cc2cnc(C(F)(F)F)cc2C1=O` , value?
Response: ≥ 80%

Prompt: Form field - read-out: mortality at 50 ppm; system: Nilaparvata lugens (Brown Plant Hopper); submitted item: `CCS(=O)(=O)c1ccc(-n2cncn2)nc1N1Cc2cnc(C(F)(F)F)cc2C1=O`
Response: ≥ 80%
